Would you mind telling me the reported normalized growth of each entry?
# METHOD_DESCRIPTION: chemical genetic growth profiling, strain panel (AID 1159580);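 further: tested at 20 µM; growth read once vehicle control cultures reached saturation at 30 °C; 1 = growth at the plate median or of vehicle wells; lower values mean less growth of the strain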
# STUDY_CONDITIONS: S. cerevisiae deletion strains, growth OD, locus YLR221C, strain rsa3, stronger effect = lower value
The campaign covered roughly 5,500 compounds. About 2,000 (36%) were called active. Roughly 18% stayed inconclusive and do not appear here. The list shows a part of the results.
The answer should be a number; do not append a unit.

Note to self: normalized growth recorded for COc1cc([C@@H]2c3cc4c(cc3[C@@H](O)C3COC(=O)C32)OCO4)cc(OC)c1O (stereo partly drawn) was 1.02

Note to self: normalized growth recorded for COC(=O)C[C@H]1C2(C)CC34OC5(C)O[C@@]6([C@H](OC)C(OC(=O)C(C)C)[C@]7(C)C(/C(=C(/OC)C(C)C)C(=O)O[C@H]7c7ccoc7)[C@@]6(O5)[C@H](OC)[C@@]3(OC)C2OC(C)=O)[C@]14C (stereo partly drawn) was 0.976

# compound O=C(O)c1cc2cc(F)ccc2[nH]1 ; its normalized growth = 0.986
